# CD8 EC50 (nM); CD69/CD25 on human T cells, plate-coated antibody per record follows
TARGET UNDER TEST: human CD3 (human, UniProt P07766 23-207; P04234 22-171; P09693 23-182)
Sequence (P07766 23-207, chain 1 of 3): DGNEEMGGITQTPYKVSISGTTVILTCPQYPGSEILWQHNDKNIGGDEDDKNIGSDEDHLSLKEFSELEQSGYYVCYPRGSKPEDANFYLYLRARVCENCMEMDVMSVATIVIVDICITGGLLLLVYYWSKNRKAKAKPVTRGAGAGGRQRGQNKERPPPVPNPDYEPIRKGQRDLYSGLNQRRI
Sequence (P04234 22-171, chain 2 of 3): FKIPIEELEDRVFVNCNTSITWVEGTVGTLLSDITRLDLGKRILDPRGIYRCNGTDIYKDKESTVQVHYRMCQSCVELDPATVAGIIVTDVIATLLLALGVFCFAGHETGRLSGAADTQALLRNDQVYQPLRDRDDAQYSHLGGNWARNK
Sequence (P09693 23-182, chain 3 of 3): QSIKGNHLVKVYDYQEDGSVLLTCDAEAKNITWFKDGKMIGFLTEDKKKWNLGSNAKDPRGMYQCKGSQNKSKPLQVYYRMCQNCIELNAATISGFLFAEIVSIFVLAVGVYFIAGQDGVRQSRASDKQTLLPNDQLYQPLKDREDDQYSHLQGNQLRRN
ASSAY METHOD TEXT: cell-based or functional assay
Use nM as the unit, but write only the number.

Some entries whose results are on file:
Query string: Return reported CD8 EC50 (nM); CD69/CD25 on human T cells, plate-coated antibody. Input binder: mAb 72 (antibody, V domains shown) VH: EVQLVDSGGGLVQPGGSLRLSCAASGFTFSSYWMSWVRQAPGKGLEWVANIKQDGSEKYYVDSVKGRFTISRDNVKNSLSLEMNSLRAEDTALYYCARDESSSWYWYFDLWGRGTLVTVSS VL: DIQMTQSPSTLSASVGDRVTITCRASQSISKWLAWYQQKPGKAPKLLIYKASSLENGVPSRFSGSGSGTEFTLTISSLQPDDFATYYCQQYSSYSRTFGQGTKVEIK
Result string: 18.2

Query string: Tell me measured CD8 EC50 (nM); CD69/CD25 on human T cells, plate-coated antibody for mAb 131 (antibody, V domains shown) VH: EVQLVESGGGLVKTGGSLRISCVASGFSFKKAWMNWVRQAPGKGLEWVGRIKRNTDGGTIDYAAPVKGRFSLSRDDSKNTLFLQMNSLKTEDTAVYFCTTLDSSSYYVGYYYMDVWGKGTTVTVSS VL: DIHMTQSPSSVSASVGDRVTITCRASQDINNWLAWYQQKPGKAPKLLIYTASSLQSGVPSRFSGSGSGTDFTLTISSLQPEDFATYFCQQAHSLPITFGQGTRLGIK please.
Result string: 13.3

Query string: Please look at this binder and report its CD8 EC50 (nM); CD69/CD25 on human T cells, plate-coated antibody: mAb 73 (antibody, V domains shown) VH: EVELVESGGGLVQPGRSLRLSCAASGFTFDDKVMHWVRQAPGKGLEWVSCINWNSGHIGYADSVKGRFTISRDNARTSLYLQMNSLRPEDTALYYCVREGNYDFWSGYYRGFFDLWGRGTLVTVSS VL: DIQMTQSPSSLSASVGDRVTITCRASQGIRNDLGWYQQKPGKAPKRLIYAASSLQGGVPSRFSGSGSGTEFTLTISSLQPEDFATYYCLQHTSYPFTFGQGTKLEIK
Result string: 23

Query string: Please give the documented CD8 EC50 (nM); CD69/CD25 on human T cells, plate-coated antibody of mAb 85 (antibody, V domains shown) VH: QVQLVQSGAEVKKPGASVKVSCKASGYTVTGYYMHWVRQAPGQGLEWMGWINPNSGGTNFAQNFQGRVTMTRDTSISTFYMDLNRLRSDDTAVYYCARGGAPVSYWFFDLWGRGTLVTVSS VL: DIQMTQSPSSLSASVGDRVTITCRASQSISRYLNWYQQKPGKAPKVLIYNTSSLKSGVPSRFSGSGSGTDFTLTISSLQPEDFGTFYCQQSHSTPFTFGPGTKVDIK
Result string: 10.3

Others:
Query string: Look up and state reported CD8 EC50 (nM); CD69/CD25 on human T cells, plate-coated antibody for mAb 127 (antibody, V domains shown) VH: EVQLVESGGGLVKTGGSHRLSCVASGFSFKKAWMNWVRQAPGKGLEWVGRIKRNSDGGTTDYAAPVKGRFILSRDDSKNTLYLQMNSLKTEDTAVYYCTTLDSSSWYVGYYYMDVWGKGTTVTVSS VL: DIQMTQSPSSVSASVGDRVTITCRASQDINNWLAWYQQKPGKAPKILIYTASNLQSGVPSRFSGSGSGTDFTLTISTLQPEDFATYFCQQAHGLPITFGQGTRLEIK
Result string: 10.3
